TEST PROTOCOL: in vivo
Parameters: species or system rat
RUN CONDITIONS: rat, blood, iv; 2 h; read-out: Blood uptake
READOUT LABEL: tissue uptake at 2 h (%ID/g)

In [3]: df
Out[3]:
                                   compound         readout_label    uom  reported_result
0  CCN(CC)CCOc1ccc(/C(=C(/CCC[18F])c2ccccc2)c2ccccc2)cc1 [[^18 F]FTX]  tissue uptake at 2 h  %ID/g            0.114

====

TEST PROTOCOL: Biodistribution in mammary tumor-bearing rats primed with estradiol
Format: in vivo, rat
RUN CONDITIONS: rat, uterus, iv, 10 uCi/rat, 1 h, read-out: Uterus uptake
READOUT LABEL: tissue uptake at 1 h (%ID/g)

>>> df
                                smiles_code         readout_label    uom  reported_result
0  CCN(CC)CCOc1ccc(/C(=C(/CCC[131I])c2ccccc2)c2ccccc2)cc1  tissue uptake at 1 h  %ID/g            0.334

====

TEST PROTOCOL: in vivo
Design: species or system rat
RUN CONDITIONS: rat, thyroid, iv; 1 h; read-out: Thyroid uptake
READOUT LABEL: tissue uptake at 1 h (%ID/g)

>>> df
                                smiles_code         readout_label    uom  reported_result
0  CCN(CC)CCOc1ccc(/C(=C(/CCC[131I])c2ccccc2)c2ccccc2)cc1  tissue uptake at 1 h  %ID/g            0.393

====

TEST PROTOCOL: in vivo
Set-up: species or system rat
RUN CONDITIONS: rat, bone, iv; 4 h; read-out: Bone uptake
READOUT LABEL: tissue uptake at 4 h (%ID/g)

>>> df
                                   molecule  reported_result
0  CCN(CC)CCOc1ccc(/C(=C(/CCC[18F])c2ccccc2)c2ccccc2)cc1 [[^18 F]FTX]            0.258

====

TEST PROTOCOL: in vivo
Design: species or system rat
RUN CONDITIONS: rat, muscle, iv; 1 h; read-out: Muscle uptake
READOUT LABEL: tissue uptake at 1 h (%ID/g)

In [3]: df
Out[3]:
                                smiles_code    uom  reported_result
0  CCN(CC)CCOc1ccc(/C(=C(/CCC[131I])c2ccccc2)c2ccccc2)cc1  %ID/g            0.201

====

TEST PROTOCOL: in vivo
Parameters: species or system rat
RUN CONDITIONS: rat, bone, iv; 2 h; read-out: Bone uptake
READOUT LABEL: tissue uptake at 2 h (%ID/g)

                                   compound         readout_label  reported_result
0  CCN(CC)CCOc1ccc(/C(=C(/CCC[18F])c2ccccc2)c2ccccc2)cc1 [[^18 F]FTX]  tissue uptake at 2 h            0.482

====

TEST PROTOCOL: in vivo
Set-up: species or system rat
RUN CONDITIONS: rat, uterus, iv; 30 min; read-out: Uterus uptake
READOUT LABEL: tissue uptake at 0.5 h (%ID/g)

>>> df
                                   molecule    uom  reported_result
0  CCN(CC)CCOc1ccc(/C(=C(/CCC[18F])c2ccccc2)c2ccccc2)cc1 [[^18 F]FTX]  %ID/g            0.536
